Origin of the recorded values: the NIST ThermoML archive (doi:10.1021/acs.jced.5b00860)

Conditions: 303.15 K, Maximal bubble pressure
Measurement type: surface tension liquid-gas (mN/m)
Give the value, in units of mN/m, as a plain number.

compound="CCCCC[n+]1ccn(C)c1.O=P([O-])(O)O [1-methyl-3-pentylimidazolium dihydrogen phosphate]" unit_name=mN/m result=40.9
compound="CCCCCn1cc[n+](C)c1.O=C([O-])O [3-methyl-1-pentylimidazolium hydrogen carbonate]" unit_name=mN/m result=30.4
compound="CCCCn1cc[n+](C)c1C.O=S(=O)([O-])O [1-butyl-2,3-dimethylimidazolium hydrogen sulfate]" unit_name=mN/m result=44.5
compound="CCCCn1cc[n+](C)c1.O=C([O-])O [1-butyl-3-methylimidazolium hydrogen carbonate]" unit_name=mN/m result=33.5
compound="CCCCn1cc[n+](C)c1.O=P([O-])(O)O [1-butyl-3-methylimidazolium dihydrogen phosphate]" unit_name=mN/m result=43.2

Now turn to the next compound.
Task item: For the compound shown here, CCCCCn1cc[n+](C)c1C.O=S(=O)([O-])O [2,3-dimethyl-1-pentylimidazolium hydrogen sulfate] , give the reported surface tension liquid-gas.
Reply: 41.7
